- target: endothelin receptor B (ETB) (Bos taurus)
- Construct: A membrane fraction prepared from the bovine brain; from tissue; host or cells: bovine brain membrane fraction
- Sequence (P28088 27-441): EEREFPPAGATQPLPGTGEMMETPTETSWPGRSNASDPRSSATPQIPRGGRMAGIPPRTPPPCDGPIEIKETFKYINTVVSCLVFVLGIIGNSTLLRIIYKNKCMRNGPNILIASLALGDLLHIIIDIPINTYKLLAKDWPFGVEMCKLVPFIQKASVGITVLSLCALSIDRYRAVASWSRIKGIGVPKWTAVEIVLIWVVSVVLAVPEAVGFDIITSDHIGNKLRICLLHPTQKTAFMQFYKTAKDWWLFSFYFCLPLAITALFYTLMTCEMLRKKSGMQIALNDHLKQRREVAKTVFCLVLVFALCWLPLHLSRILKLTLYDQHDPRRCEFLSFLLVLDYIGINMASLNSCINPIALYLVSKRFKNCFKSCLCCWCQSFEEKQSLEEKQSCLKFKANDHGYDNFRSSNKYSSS
- protocolDescription: Assay of Affinity for Receptor (2): Binding Activity on ETB Receptor *1
- Design: key: relative specific activity, Example 8 compound = 100
- assaySetup: specific activity, binding activity of the compound of Example 8 taken as 100; bovine brain membrane fraction, 125I labeled endothelin-1, 25° C., 1 hour
- Description: Assay of Affinity for Receptor (2) . . . Binding Activity on ETB Receptor *1 A membrane fraction prepared from the bovine brain was diluted to 0.15 mg/ml by using a buffer solution for assay, and 100 μl of the resulting suspension of the membrane fraction was poured into each assay tube to use for assay. To this suspension of the membrane fraction was added 2 μl of 5 nM ^125 I labeled endothelin-1 solution. […]
Non-standard residues stand in square brackets, D forms with d. Residues, ends and D or L forms follow the SMILES beside them. Hyp = O=C(O)[C@@H]1C[C@@H](O)CN1; Aze = O=C(O)[C@@H]1CCN1
quantityKind: Binding Activity on ET Receptor (R. act.) ET8 *1

Example results:
# molecule, numericReadout
records = [
    ("CC(C)C[C@@H]1NC(=O)[C@@H](CC(C)C)NC(=O)[C@H](CC(=O)O)NC(=O)[C@@H]2C[C@@H](O)CN2C(=O)[C@@H](CC(=O)O)NC(=O)[C@@H](Cc2c[nH]c3ccccc23)NC1=O [Example 14, cyclo[-D-Asp-Hyp-Asp-D-Leu-Leu-D-Trp-]] (cyclo(D[dL]L[dW][dD][Hyp]))", 160),
    ("CC(C)C[C@@H]1NC(=O)[C@@H](CC(C)C)NC(=O)[C@@H]2CCCN2C(=O)[C@H](Cc2c[nH]c3ccccc23)NC(=O)[C@@H](CC(=O)O)NC(=O)[C@@H](Cc2c[nH]c3ccccc23)NC1=O [Example 36] (cyclo(L[dW][dD]WP[dL]))", 40),
    ("CC(C)C[C@@H]1NC(=O)[C@@H](C(C)C)NC(=O)[C@H](CC(=O)O)NC(=O)[C@H](Cc2c[nH]c3ccccc23)NC(=O)[C@@H](CC(=O)O)NC(=O)[C@@H](Cc2c[nH]c3ccccc23)NC1=O [Example 52] (cyclo(D[dV]L[dW][dD]W))", 240),
    ("CC(C)C[C@@H]1NC(=O)[C@@H](CC(C)C)NC(=O)[C@H](CC(=O)O)NC(=O)[C@H](Cc2c[nH]c3ccccc23)NC(=O)[C@@H](CC(=O)O)NC(=O)[C@@H](Cc2c[nH]c3ccccc23)NC1=O [Example 8, cyclo[-D-Asp-Trp-Asp-D-Leu-Leu-D-Trp-]] (cyclo(D[dL]L[dW][dD]W))", 100),
    ("CC(C)C[C@@H]1NC(=O)[C@@H](CC(C)C)NC(=O)[C@H](CC(=O)O)NC(=O)[C@@H]2CCN2C(=O)[C@@H](CC(=O)O)NC(=O)[C@@H](Cc2c[nH]c3ccccc23)NC1=O [Example 25] (cyclo([Aze]D[dL]L[dW][dD]))", 25),
]

[I] CC(C)C[C@@H]1NC(=O)[C@@H](Cc2ccccc2)NC(=O)[C@H](CC(=O)O)NC(=O)[C@H](Cc2c[nH]c3ccccc23)NC(=O)[C@@H](CC(=O)O)NC(=O)[C@@H](Cc2c[nH]c3ccccc23)NC1=O [Example 60] (cyclo(D[dF]L[dW][dD]W))
[II] CC(C)C[C@@H]1NC(=O)[C@@H](CC(C)C)NC(=O)[C@H](CCC(=O)O)NC(=O)[C@H](Cc2c[nH]c3ccccc23)NC(=O)[C@@H](CC(=O)O)NC(=O)[C@@H](Cc2c[nH]c3ccccc23)NC1=O [Example 34] (cyclo(E[dL]L[dW][dD]W))
In: Select the item whose Binding Activity on ET Receptor (R. act.) ET8 *1 value is smaller, choosing between I and II . Mark your selection by writing its label.
Out: II
